Target: T1, soluble recombinant human DEC-205 fusion protein (DEC-205 extracellular domain comprising all ten … (human))
T1 chain: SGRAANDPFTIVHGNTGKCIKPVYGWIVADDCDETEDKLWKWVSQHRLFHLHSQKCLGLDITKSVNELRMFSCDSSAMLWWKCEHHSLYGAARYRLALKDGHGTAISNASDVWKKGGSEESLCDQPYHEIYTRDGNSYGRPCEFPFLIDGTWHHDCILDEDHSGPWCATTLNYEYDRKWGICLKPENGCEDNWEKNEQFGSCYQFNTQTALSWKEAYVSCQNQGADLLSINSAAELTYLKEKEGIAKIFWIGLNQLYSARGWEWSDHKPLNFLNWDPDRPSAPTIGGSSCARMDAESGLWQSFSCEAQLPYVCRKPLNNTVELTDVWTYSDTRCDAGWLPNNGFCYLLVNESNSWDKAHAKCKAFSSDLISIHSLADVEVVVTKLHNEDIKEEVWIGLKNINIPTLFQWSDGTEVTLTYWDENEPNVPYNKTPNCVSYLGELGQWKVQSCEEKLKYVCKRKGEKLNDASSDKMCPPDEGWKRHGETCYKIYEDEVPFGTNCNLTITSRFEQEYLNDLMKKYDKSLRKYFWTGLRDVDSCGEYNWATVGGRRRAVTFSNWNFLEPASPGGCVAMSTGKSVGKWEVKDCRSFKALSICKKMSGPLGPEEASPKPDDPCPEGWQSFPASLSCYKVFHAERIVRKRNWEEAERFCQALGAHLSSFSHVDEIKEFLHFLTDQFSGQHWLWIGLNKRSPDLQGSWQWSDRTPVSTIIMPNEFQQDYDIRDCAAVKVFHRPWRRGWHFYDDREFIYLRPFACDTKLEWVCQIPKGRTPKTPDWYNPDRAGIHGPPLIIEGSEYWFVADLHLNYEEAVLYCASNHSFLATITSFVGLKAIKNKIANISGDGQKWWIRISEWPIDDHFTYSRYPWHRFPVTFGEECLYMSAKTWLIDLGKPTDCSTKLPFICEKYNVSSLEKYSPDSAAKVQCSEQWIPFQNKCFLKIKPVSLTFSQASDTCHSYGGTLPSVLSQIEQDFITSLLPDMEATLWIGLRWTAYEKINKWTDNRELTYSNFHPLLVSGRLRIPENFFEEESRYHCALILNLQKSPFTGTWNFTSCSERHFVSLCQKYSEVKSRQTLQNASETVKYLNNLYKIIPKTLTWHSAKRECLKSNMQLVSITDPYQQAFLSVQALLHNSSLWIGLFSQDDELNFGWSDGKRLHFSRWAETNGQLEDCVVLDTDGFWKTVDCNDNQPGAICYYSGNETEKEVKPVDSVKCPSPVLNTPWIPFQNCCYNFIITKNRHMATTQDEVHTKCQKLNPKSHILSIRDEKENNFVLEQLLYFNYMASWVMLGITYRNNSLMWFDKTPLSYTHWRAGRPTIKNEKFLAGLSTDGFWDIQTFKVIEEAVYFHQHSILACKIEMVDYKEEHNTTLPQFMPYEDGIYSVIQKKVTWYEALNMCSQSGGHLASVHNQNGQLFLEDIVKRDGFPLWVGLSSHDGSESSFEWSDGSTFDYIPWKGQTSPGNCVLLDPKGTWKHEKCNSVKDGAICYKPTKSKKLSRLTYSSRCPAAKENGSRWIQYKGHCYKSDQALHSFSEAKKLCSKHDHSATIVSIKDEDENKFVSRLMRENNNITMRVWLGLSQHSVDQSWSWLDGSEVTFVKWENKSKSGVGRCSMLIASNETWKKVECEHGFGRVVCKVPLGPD
Assay: SPR (Biacore 2000), DEC-205 fusion protein amine-coupled to CM5 chip, antibody flowed, 1:1 Langmuir fit, mean of two series
Readout kind: Ka (M⁻¹)
Numbers only, in M⁻¹.

{"columns": ["Binder", "Measurement units", "Ka"],
 "data": [
  ["human anti-DEC-205 monoclonal antibody 3D6-2F4 (antibody, V domains shown, also called mAb #5) VH: QVQLVESGGGVVQPGRSLRLSCAASGFIFSIYGMHWVRQAPGKGLEWVAVIWYDGSNKYYADSVKGRFTISRDNSKNTLYLQMNSLRAEDTAVYYCARAPHFDYWGQGTLVTVSS VL: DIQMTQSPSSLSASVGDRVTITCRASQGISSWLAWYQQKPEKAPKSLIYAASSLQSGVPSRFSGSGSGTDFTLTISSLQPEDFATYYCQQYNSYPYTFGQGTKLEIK", "M⁻¹", "1.5e+10"],
  ["human anti-DEC-205 monoclonal antibody 3G9-2D2 (antibody, V domains shown) VH: QVQLVESGGGVVQPGRSLRLSCAASGFTFSNYGMYWVRQAPGKGLEWVAVIWYDGSNKYYADSVKGRFTISRDNSKNTLYLQMNSLRAEDTAVYYCARDLWGWYFDYWGQGTLVTVSS VL: EIVLTQSPATLSLSPGERATLSCRASQSVSSYLAWYQQKPGQAPRLLIYDASNRATGIPARFSGSGSGTDFTLTISSLEPEDFAVYYCQQRRNWPLTFGGGTKVEIK", "M⁻¹", "4.7e+09"],
  ["human anti-DEC-205 monoclonal antibody 3C7-3A3 (antibody, V domains shown) VH: QVQLVESGGGVVQPGRSLRLSCAASGFTFSSYNMHWVRQAPGKGLEWVAFIWYDGSNKYYGDSVKGRFTISRDNSKNTLYLQMNSLRAEDTAVYYCAREELGIGWYFDLWGRGTLVTVSS VL: EIVLTQSPATLSLSPGERATLSCRASQSVSSYLAWYQQKPGQAPRLLIYDASNRATGIPARFSGSGSGTDFTLTISSLEPEDFAVYYCQQRRTFGQGTKVEIK", "M⁻¹", "5.2e+08"]
]}

Next item in the queue.
Task: Entry human anti-DEC-205 monoclonal antibody 5A8-1F1 (antibody, V domains shown) VH: QVQLVESGGGVVQPGRSLRLSCAASGFTFSTYGMHWVRQAPGKGLEWVAIIWYDGGNKYYADSVKGRFTISRDNSKNTLYLQMNSLRAEDTAVYYCARDFYWYFDLWGRGTLVTVSS VL: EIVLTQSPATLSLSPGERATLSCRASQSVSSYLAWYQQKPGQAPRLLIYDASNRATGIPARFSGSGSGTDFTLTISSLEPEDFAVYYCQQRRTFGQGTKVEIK has what Ka?
Output: 2.1e+09
